Where do the numbers come from? From patent US20200368361A1.

- SYSTEM_UNDER_TEST: T1, human MSR1 with a C-terminal Myc tag expressed on HEK293.Myc.hMSR1 cells (human, UniProt P21757 1-451)
- T1 sequence (looked up): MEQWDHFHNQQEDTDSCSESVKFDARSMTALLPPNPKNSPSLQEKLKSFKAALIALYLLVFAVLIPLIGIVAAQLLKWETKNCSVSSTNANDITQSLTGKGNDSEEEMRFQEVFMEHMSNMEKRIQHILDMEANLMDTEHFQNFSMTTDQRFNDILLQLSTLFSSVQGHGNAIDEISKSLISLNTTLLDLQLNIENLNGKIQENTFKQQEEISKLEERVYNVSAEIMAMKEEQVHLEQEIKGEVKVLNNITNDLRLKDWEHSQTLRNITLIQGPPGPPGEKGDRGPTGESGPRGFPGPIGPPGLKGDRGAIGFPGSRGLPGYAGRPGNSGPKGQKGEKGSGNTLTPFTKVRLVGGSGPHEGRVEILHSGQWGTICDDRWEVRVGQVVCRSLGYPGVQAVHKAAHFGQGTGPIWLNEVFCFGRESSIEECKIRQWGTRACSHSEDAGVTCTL
- RUN_DESCRIPTION: cell-based or functional assay
VALUE_TYPE: IC50 of inhibition of Dil-Acetylated LDL uptake

Examples with their reported IC50 of inhibition of Dil-Acetylated LDL uptake follow.
H2aM25700N (antibody, V domains shown) VH: QVQLVQSGSEVKKPGASVKVSCKVSGYTLTELSIHWVRQAPGKGLEWMGGFDPEDGETIYAQKFRGRVTMTEDISPDTAYMELSSLRSEDTAVYYCATPRYCNNGICYDYWGQGTLVTVSS VL: DIQMTQSPSSLSASIGDRVTITCRASQSISSYLNWYQQKPGKAPMLLIYAASSLQSGVPSRFSGSGSGTDFTLTISSLQTEDFATYYCQQSYSTPPITFGQGTRLEIKR :: 2.4 nM
H2aM21227N (antibody, V domains shown) VH: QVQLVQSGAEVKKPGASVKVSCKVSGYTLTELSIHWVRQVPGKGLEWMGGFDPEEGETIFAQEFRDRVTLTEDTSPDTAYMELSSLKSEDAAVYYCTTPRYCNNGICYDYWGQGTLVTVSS VL: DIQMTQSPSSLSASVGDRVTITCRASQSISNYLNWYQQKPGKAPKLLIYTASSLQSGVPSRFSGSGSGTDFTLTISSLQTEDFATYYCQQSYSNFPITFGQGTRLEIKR :: 3.7 nM
H1M21231N (antibody, V domains shown) VH: EVQLVESGGGLVQPGGSLRLSCAASGFTFSDHYMDWVRQAPGKGLEWVGRTRNKANSHTTEYTASVTGRFTISRDDSRNSLYLQMNSLKTEDTAVYYCVRAGIIGTLFDYWGQGTLVTVSS VL: DIQMTQFPSSLSASVGDRVTITCRASQSISSFLNWFQQKPGKAPKFLIYAASSLQSGVPSRFSGSGSGTDFTLTISSLQPEDFATYYCQQSYSSPPITFGQGTRLEIKR :: > 20 nM
H1H21227N-N297Q (antibody, V domains shown) VH: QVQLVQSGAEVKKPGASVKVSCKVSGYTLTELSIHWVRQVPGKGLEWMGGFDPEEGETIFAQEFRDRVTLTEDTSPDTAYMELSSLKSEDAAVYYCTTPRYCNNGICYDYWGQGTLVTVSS VL: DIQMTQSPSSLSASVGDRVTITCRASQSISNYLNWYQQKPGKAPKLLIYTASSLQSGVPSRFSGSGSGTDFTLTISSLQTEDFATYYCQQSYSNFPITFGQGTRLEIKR :: 2.4 nM
H1H27747P-N297Q (antibody, V domains shown) VH: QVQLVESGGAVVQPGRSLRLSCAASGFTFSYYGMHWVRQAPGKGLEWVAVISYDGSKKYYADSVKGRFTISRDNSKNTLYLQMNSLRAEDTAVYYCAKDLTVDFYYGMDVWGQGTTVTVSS VL: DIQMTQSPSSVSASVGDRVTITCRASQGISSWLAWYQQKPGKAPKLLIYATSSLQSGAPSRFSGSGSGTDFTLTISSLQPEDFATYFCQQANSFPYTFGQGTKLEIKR :: > 100 nM

Shift focus to the following entry.
Q: Annotate the binder H1H27729P-N297Q (antibody, V domains shown) VH: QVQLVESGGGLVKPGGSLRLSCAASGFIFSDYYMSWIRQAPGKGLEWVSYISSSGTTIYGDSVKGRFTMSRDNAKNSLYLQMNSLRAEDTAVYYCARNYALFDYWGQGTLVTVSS VL: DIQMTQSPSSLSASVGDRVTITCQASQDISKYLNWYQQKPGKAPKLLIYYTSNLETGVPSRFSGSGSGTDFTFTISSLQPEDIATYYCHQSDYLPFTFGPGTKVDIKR with its measured IC50 of inhibition of Dil-Acetylated LDL uptake.
Result: 1.2 nM
